Below, each entry is listed with its recorded % Potency Relative to Native.
Measurement Target: GLP-1 receptor (UniProt P43220 24-463, limits assumed)
Test Method Notes: cell-based or functional assay
Positions of bridges follow the written chain, without caps; N, C: chain ends. Non-standard residues stand in square brackets, D forms with d. No end group written: not given here. *: point of attachment. Isobutyryl(2-imidazol-4-yl) = CC(C)(C(=O)*)c1c[nH]cn1; DMIA = not defined here; PEG = not defined here; Aib = CC(C)(N)C(=O)O
Please answer using the number first and the unit second.

Previously resolved entries follow.
Short answer for [Isobutyryl(2-imidazol-4-yl)]SQGTFTSDYSKYLDERRAKDFVC(PEG)WLMNGGPSSGAPPPS-NH2 (lactam 16-20; reading uncertain; also: PEG size not given here) [E16, K20 DMIA1, Gly29,30 Cys24 Cex Lactam (SEQ ID NO: 513), parent w/PEG] : % Potency Relative to Native was 11.3%

Field % Potency Relative to Native (entry [Isobutyryl(2-imidazol-4-yl)]SQGTFTSDYSKYLDEQAAKEFIC(PEG)WLMNT-NH2 (lactam 16-20; reading uncertain) [Chimera DMIA1, Cys24 Lactam (SEQ ID NO: 505), parent w/PEG] ) reads 12.5%

// sample H[Aib]QGTFTSDYSKYLDERAAKDFVC(PEG)WLMNGGPSSGAPPPS-NH2 (not fully specified; reading uncertain) [E16, K20AIB2, A18 Gly29,30 Cys24 Cex (SEQ ID NO: 496), parent w/PEG] , its % Potency Relative to Native was 88.5%

Next:
Looking up [DMIA]SQGTFTSDYSKYLDERRAKDFVCWLMNGGPSSGAPPPS-NH2 (lactam 16-20; reading uncertain) [E16, K20 DMIA1, Gly29,30 Cys24 Cex Lactam (SEQ ID NO: 513), parent w/o PEG] , I see its % Potency Relative to Native listed as 78.3%
